Assay: RP, Agilent ZORBAX Eclipse Plus C18, 150 × 2.1 mm, 3.5 µm, 40 °C, 0.3 mL/min, estimated dead time 1.1 min; A: water + 0.1% formic acid; B: acetonitrile + 0.1% formic acid; gradient (min/%B) 0/2 1/2 2/20 16.5/98 22/98
Conditions: stereoisomer not certain
Recorded LC retention time for the following molecules

| molecule | LC retention time / min |
| --- | --- |
| CC(CC(C)(C)C)CP(=O)(O)CC(C)CC(C)(C)C (stereo not given) | 14.4 |
| COC1C(O)CC(=O)OC(C)CC=CC=CC(OC2CCC(N(C)C)C(C)O2)C(C)CC(CC=O)C1OC1OC(C)C(OC2CC(C)(O)C(O)C(C)O2)C(N(C)C)C1O (stereo not given) | 5.77 |
| CCN1CCCC1CNC(=O)c1cc(S(=O)(=O)CC)c(N)cc1OC (stereo not given) | 5.57 |
| O=C(O)C(c1ccccc1)C1CCCCN1 (stereo not given) | 4.91 |
| O=C(OC1CC2CCC(C1)[N+]21CCCC1)C(O)(c1ccccc1)c1ccccc1 (stereo not given) | 7.41 |

---

Known LC retention time of a selection of compounds
Assay: RP, Agilent ZORBAX Eclipse Plus C18, 150 × 2.1 mm, 3.5 µm, 40 °C, 0.3 mL/min, estimated dead time 1.1 min; A: water + 0.1% formic acid; B: acetonitrile + 0.1% formic acid; gradient (min/%B) 0/2 1/2 2/20 16.5/98 22/98
Settings: stereoisomer not certain

| compound | LC retention time [min] |
| --- | --- |
| CCCC[N+](CCCC)(CCCC)CCCC | 8.91 |
| C[N+](C)(C)c1ccccc1 | 2.83 |
| Nc1ncnc2c1ncn2CCOCP(=O)(O)O | 2.12 |
| CCCC[P+](CCCC)(CCCC)CC1OCCO1 | 8.76 |
| c1ccc(CC2=NCCN2)cc1 | 4.62 |
| COc1ccc(C(CN)C2(O)CCCCC2)cc1 (configuration not stated) | 6.32 |
| Cc1c[nH]c(=O)[nH]c1=O | 3.23 |

---

Experiment: RP, Agilent ZORBAX Eclipse Plus C18, 150 × 2.1 mm, 3.5 µm, 40 °C, 0.3 mL/min, estimated dead time 1.1 min; A: water + 0.1% formic acid; B: acetonitrile + 0.1% formic acid; gradient (min/%B) 0/2 1/2 2/20 16.5/98 22/98
Settings: stereoisomer not certain

| compound | LC retention time [min] |
| --- | --- |
| c1ccc(COCCC[P+](c2ccccc2)(c2ccccc2)c2ccccc2)cc1 | 9.73 |
| CC1(C)OCC2OC3(C(=O)O)OC(C)(C)OC3C2O1 (configuration not stated) | 7.35 |
| CC(=O)OCCCC[P+](c1ccccc1)(c1ccccc1)c1ccccc1 | 8.85 |
| CC(=O)C1(O)CCC2C3CC(C)C4=CC(=O)CCC4(C)C3CCC21C (configuration not stated) | 12.5 |
| Oc1ccc(O)cc1 | 3.67 |
| COc1cc(Cc2cnc(N)nc2N)cc(OC)c1OC | 5.11 |
| CC(C)=CC[P+](c1ccccc1)(c1ccccc1)c1ccccc1 | 9.02 |
| COC(=O)Nc1ccccc1 | 8.47 |
| ON(Cc1ccccc1)Cc1ccccc1 | 8.96 |
| CC(=O)Nc1ccc(C)cc1 | 7.71 |
| CCCCCCCCn1sccc1=O | 11.9 |
| O=c1[nH]c2c(c(=O)n1C1CCCCC1)CCC2 | 9.02 |
